biological target: Mitogen-activated protein kinase 1 (Homo sapiens, UniProt P28482); experiment: Inhibition of ERK2
Sequence (P28482 whole entry): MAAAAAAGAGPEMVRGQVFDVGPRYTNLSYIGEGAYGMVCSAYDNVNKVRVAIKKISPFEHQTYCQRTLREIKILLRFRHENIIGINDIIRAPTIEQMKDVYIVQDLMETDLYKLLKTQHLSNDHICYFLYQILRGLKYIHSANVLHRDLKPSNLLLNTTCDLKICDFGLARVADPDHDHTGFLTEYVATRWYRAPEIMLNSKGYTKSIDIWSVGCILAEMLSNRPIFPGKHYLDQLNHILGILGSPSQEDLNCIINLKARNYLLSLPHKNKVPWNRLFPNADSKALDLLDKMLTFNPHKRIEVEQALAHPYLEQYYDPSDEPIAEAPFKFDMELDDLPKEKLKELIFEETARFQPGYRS
# key: entry, value: IC50

QUERY: Entry CC(=O)O.O=C(O)c1ccc2c3c1cccc3c(=O)n1c3ccccc3nc21 has what IC50?
RESULT: > 26.7 µM

Kindly consider the entry below.
QUERY: Entry c1ccc(-c2n[nH]c3c2oc2ccccc23)cc1 has what IC50?
RESULT: ≥ 10 µM

====

molecular target: Serine/threonine-protein kinase PAK 6 (Homo sapiens)
Kindly return 1.0 if reported ΔTm is no lower than 0.6 °C; return 0.0 if it is lower.

The examples below pair each entry with its known result.
QUERY: Could you verify whether the entry CN1CCc2[nH]c(=S)c(C#N)c(-c3cccs3)c2C1 shows ΔTm of no less than 0.6 °C?
RESULT: 0.0

QUERY: Could you verify whether the entry Cc1nc2sccn2c(=O)c1CCN1CCC(=C(c2ccccc2)c2ccc(F)cc2)CC1 shows ΔTm of no less than 0.6 °C?
RESULT: 1.0

QUERY: Could you verify whether the entry CN(c1cccnc1)c1cc2c(Nc3ccc(F)c(Cl)c3)c(C#N)cnc2cn1 shows ΔTm of no less than 0.6 °C?
RESULT: 0.0

Next:
QUERY: Could you verify whether the entry CC(C)[C@H](CO)Nc1nc(Nc2cc(N)cc(Cl)c2)c2ncn(C(C)C)c2n1 [AMINOPURVALANOL] shows ΔTm of no less than 0.6 °C?
RESULT: 0.0

QUERY: Could you verify whether the entry CCOc1cc(/C=C(\C#N)C(N)=O)cc(CSc2ccccc2)c1O shows ΔTm of no less than 0.6 °C?
RESULT: 0.0

QUERY: Could you verify whether the entry CCOc1ccc(/C=C2/SC(=O)N(CCN)C2=O)cc1 [HIAZOLIDINEDIONE1] shows ΔTm of no less than 0.6 °C?
RESULT: 0.0

QUERY: Could you verify whether the entry Ic1cccc(CSc2nnc(-c3ccncc3)o2)c1 shows ΔTm of no less than 0.6 °C?
RESULT: 0.0

====

molecular target: Calcium/calmodulin-dependent protein kinase type II subunit gamma (Homo sapiens)
ΔTm vs 0.3 °C: less than gives 1; not less than gives 0.

The examples below pair each entry with its known result.
QUERY: Does this compound meet the criterion ΔTm < 0.3 °C? C/C(O)=C(\C#N)C(=O)Nc1cc(Br)ccc1Br
RESULT: 1

QUERY: Does this compound meet the criterion ΔTm < 0.3 °C? COc1cc2ncnc(Nc3ccc(NC(=O)c4ccccc4)cc3)c2cc1OC
RESULT: 1

QUERY: Does this compound meet the criterion ΔTm < 0.3 °C? CC(C)N(CCO)c1nc(Nc2cccc(Cl)c2)c2ncn(C(C)C)c2n1
RESULT: 0

Next:
QUERY: Does this compound meet the criterion ΔTm < 0.3 °C? CC(=O)O/N=C1/C(=C2/C(=O)Nc3cc(Br)ccc32)Nc2ccccc21
RESULT: 0

QUERY: Does this compound meet the criterion ΔTm < 0.3 °C? C[S+]([O-])c1ccc(-c2nc(-c3ccc(F)cc3)c(-c3ccncc3)[nH]2)cc1 (configuration not stated)
RESULT: 1

QUERY: Does this compound meet the criterion ΔTm < 0.3 °C? Clc1ccc(Nc2nnc(Cc3ccncc3)c3ccccc23)cc1
RESULT: 1

QUERY: Does this compound meet the criterion ΔTm < 0.3 °C? Cc1nc(N)sc1-c1ccnc(Nc2cccc([N+](=O)[O-])c2)n1
RESULT: 0

QUERY: Does this compound meet the criterion ΔTm < 0.3 °C? NC(=O)c1ccc2[nH]c(-c3ccc(Oc4ccc(Cl)cc4)cc3)nc2c1
RESULT: 1

QUERY: Does this compound meet the criterion ΔTm < 0.3 °C? N#C/C(=C\c1ccc(O)c(O)c1)C(=O)Nc1ccccc1
RESULT: 1

QUERY: Does this compound meet the criterion ΔTm < 0.3 °C? O=C1Nc2ccc(S(=O)(=O)O)cc2/C1=C1/Nc2ccccc2/C1=N\O
RESULT: 0

QUERY: Does this compound meet the criterion ΔTm < 0.3 °C? Cc1ccc(NC(=O)c2cccc(N(C)C)c2)cc1NC(=O)c1ccc(O)cc1
RESULT: 1

QUERY: Does this compound meet the criterion ΔTm < 0.3 °C? COc1cc2ncnc(Nc3cccc(O)c3)c2cc1OC
RESULT: 0

QUERY: Does this compound meet the criterion ΔTm < 0.3 °C? CN(C)c1ncnc2nc[nH]c12
RESULT: 1

QUERY: Does this compound meet the criterion ΔTm < 0.3 °C? O=C1NC(=O)c2c1c1c3ccccc3[nH]c1n1cncc21 [ISOGRANULATIMIDE]
RESULT: 0

QUERY: Does this compound meet the criterion ΔTm < 0.3 °C? O=C1C(Cl)=C(N2C(=O)CCC2=O)C(=O)c2ccccc21
RESULT: 1

QUERY: Does this compound meet the criterion ΔTm < 0.3 °C? Cc1c2ccncc2c(C)c2c1[nH]c1ccccc12
RESULT: 0

QUERY: Does this compound meet the criterion ΔTm < 0.3 °C? CCOc1cc2ncnc(Nc3cccc(Br)c3)c2cc1OCC
RESULT: 0

QUERY: Does this compound meet the criterion ΔTm < 0.3 °C? COc1ccc2c(c1)/C(=C/c1cnc[nH]1)C(=O)N2
RESULT: 0

QUERY: Does this compound meet the criterion ΔTm < 0.3 °C? CC(C)(C)c1nc2c3ccc(F)cc3c3c(=O)[nH]ccc3c2[nH]1
RESULT: 0

QUERY: Does this compound meet the criterion ΔTm < 0.3 °C? CC(C)c1nn(-c2c(Cl)cccc2Cl)c2nc(Cc3ccc(OCCO)cc3)[nH]c(=O)c12
RESULT: 0

QUERY: Does this compound meet the criterion ΔTm < 0.3 °C? OC[C@H]1O[C@@H](n2cnc3cc(Cl)c(Cl)cc32)[C@H](O)[C@@H]1O
RESULT: 1
